# Test system: spores of ATCC 630 strain
# test-method-notes: Inhibition of germination of C. difficile spores (MIC), strain ATCC 630
# Assay type: cell-based
# measurement-parameters: Clostridioides difficile, ATCC630, 1 h; strain 630; sodium taurocholate as germinant, BHIS medium, 37° C., OD580 for 60 min; read-out: MIC (minimum concentration that completely inhibits spore germination)
Please go through the items and note down their MIC.
Give bare numbers, in µM.

compound: CC[C@@H](NC(=O)C[C@@H](C)[C@H]1CC[C@H]2[C@@H]3[C@H](OP(=O)(O)O)C[C@@H]4CC(=O)CC[C@]4(C)[C@H]3CC[C@]12C)c1ccc(Br)s1
tested-target: spores of ATCC 630 strain
MIC (µM): 64

compound: C[C@H](CC(=O)NCc1cccs1)[C@H]1CC[C@H]2[C@@H]3[C@H](O)[C@H](O)[C@@H]4C[C@H](O)CC[C@]4(C)[C@H]3CC[C@]12C
tested-target: spores of ATCC 630 strain
MIC (µM): 4

compound: CCC(NC(=O)C[C@@H](C)[C@H]1CC[C@H]2[C@@H]3[C@H](O)C[C@@H]4CC(=O)CC[C@]4(C)[C@H]3CC[C@]12C)c1ccc(S(=O)(=O)O)s1 (some centres unmarked)
tested-target: spores of ATCC 630 strain
MIC (µM): 16

Hey, spores of ATCC 630 strain data for CC[C@@H](NC(=O)C[C@@H](C)[C@H]1CC[C@H]2[C@@H]3[C@H](O)C[C@@H]4C[C@H](OC)CC[C@]4(C)[C@H]3CC[C@]12C)c1ccc(Cl)s1 : MIC came out at 128

====

Please provide measured MIC for the entries that follow.
# Test system: spores of ATCC 630 strain
# test-method-notes: Inhibition of germination of C. difficile spores (MIC), strain ATCC 630
# Type: cell-based
# measurement-parameters: Clostridioides difficile, ATCC630, 1 h; strain 630; sodium taurocholate as germinant, BHIS medium, 37° C., OD580 for 60 min; read-out: MIC (minimum concentration that completely inhibits spore germination)
Numbers only, in µM.

I'm hoping you can list MIC for every compound here, please.
1. CC(C)[C@@H](NC(=O)C[C@@H](C)[C@H]1CC[C@H]2[C@@H]3C(=O)C[C@@H]4CC(=O)CC[C@]4(C)[C@H]3CC[C@]12C)c1ccc(S(=O)(=O)O)s1 [Compound I-83]
2. CC(C)[C@@H](NC(=O)C[C@@H](C)[C@H]1CC[C@H]2[C@@H]3[C@H](O)C[C@@H]4CC(=O)CC[C@]4(C)[C@H]3CC[C@]12C)c1ccc(S(=O)(=O)O)s1 [Compound I-103]
3. CCC(NC(=O)C[C@@H](C)[C@H]1CC[C@H]2[C@@H]3C(=O)C[C@@H]4CC(=O)CC[C@]4(C)[C@H]3CC[C@]12C)c1ccc(Cl)s1 (some centres unmarked) [Compound I-68]
4. CCC(NC(=O)C[C@@H](C)[C@H]1CC[C@H]2[C@@H]3[C@H](OS(=O)(=O)O)C[C@@H]4CC(=O)CC[C@]4(C)[C@H]3CC[C@]12C)c1ccc(Br)s1 (some centres unmarked) [Compound I-107]

Marked response:
[16, 16, 1, 1]

====

# System: spores of ATCC 630 strain
# test-method-notes: Inhibition of germination of C. difficile spores (MIC), strain ATCC 630
# Assay type: cell-based
# measurement-parameters: Clostridioides difficile, ATCC630, 1 h; strain 630; sodium taurocholate as germinant, BHIS medium, 37° C., OD580 for 60 min; read-out: MIC (minimum concentration that completely inhibits spore germination)
endpoint: MIC (µM)
Give bare numbers, in µM.

smiles-entry: CC(C)[C@H](NC(=O)C[C@@H](C)[C@H]1CC[C@H]2[C@@H]3[C@H](O)C[C@@H]4CC(=O)CC[C@]4(C)[C@H]3CC[C@]12C)c1ccc(Cl)s1
tested-target: spores of ATCC 630 strain
MIC (µM): 4

Hey, can you go through the list below and give me MIC for every item?
1. CC[C@@H](NC(=O)C[C@@H](C)[C@H]1CC[C@H]2[C@@H]3[C@H](O)C[C@@H]4CC(=O)CC[C@]4(C)[C@H]3CC[C@]12C)c1ccc(Cl)s1
2. C[C@H](CC(=O)NCc1ccco1)[C@H]1CC[C@H]2[C@@H]3C(=O)C[C@@H]4C[C@H](O)CC[C@]4(C)[C@H]3CC[C@]12C

Marked response:
1: 0.125; 2: 16
